Values compiled from patent US8791132B2.

Molecular target: human recombinant adrenergic α2A receptor (Homo sapiens, UniProt P08913)
Construct: expressed in transfected cells; host or cells: insect Sf9 cells
Sequence (P08913 whole entry): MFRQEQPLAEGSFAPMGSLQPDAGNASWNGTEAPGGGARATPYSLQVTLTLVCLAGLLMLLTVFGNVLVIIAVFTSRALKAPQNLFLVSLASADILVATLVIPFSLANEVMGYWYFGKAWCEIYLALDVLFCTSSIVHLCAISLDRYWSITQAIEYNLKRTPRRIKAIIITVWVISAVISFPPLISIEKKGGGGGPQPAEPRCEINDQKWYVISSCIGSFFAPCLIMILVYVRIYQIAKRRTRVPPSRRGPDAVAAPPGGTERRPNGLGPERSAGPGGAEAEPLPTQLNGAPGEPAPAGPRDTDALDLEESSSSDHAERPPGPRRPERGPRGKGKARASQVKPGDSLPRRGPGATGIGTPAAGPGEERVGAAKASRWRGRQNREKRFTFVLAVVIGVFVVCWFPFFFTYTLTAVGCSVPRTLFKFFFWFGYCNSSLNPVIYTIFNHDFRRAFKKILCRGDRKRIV
Test: Radioligand binding, adrenergic α2A ([3H]MK-912)
Settings: compound at 0.1 μM; [3H]MK-912; repeat assays, each datapoint shown; read-out: Percentage inhibition of ligand binding, Adrenergic α2A
readoutType: inhibition at 0.1 µM (%)

[1] CCOC(=O)N1CCc2c(c3cc(C)ccc3n2CC(O)c2ccncc2)C1 (stereo not shown)
[2] Cc1ccc2c(c1)c1c(n2CC(C)(O)c2cccnc2)CN(C)CC1 (stereo not shown) [14b]
[3] CN1CCc2c(c3cc(C(F)(F)F)ccc3n2CC(O)c2ccncc2)C1 (stereo not shown)
[4] Cc1ccc2c(c1)c1c(n2CC(C)(O)c2cccnc2)CCNC1 (single isomer, unassigned) [24a]
Q: Sort the entries above by inhibition at 0.1 µM, largest first. Your task in answering is to list the labels in the requested order.
Result: 4, 3, 1, 2

* * *

Biological target: human recombinant adrenergic α2B receptor (Homo sapiens)
Construct: expressed in transfected cells; host or cells: CHO-K1
Sequence (P18089 1-450): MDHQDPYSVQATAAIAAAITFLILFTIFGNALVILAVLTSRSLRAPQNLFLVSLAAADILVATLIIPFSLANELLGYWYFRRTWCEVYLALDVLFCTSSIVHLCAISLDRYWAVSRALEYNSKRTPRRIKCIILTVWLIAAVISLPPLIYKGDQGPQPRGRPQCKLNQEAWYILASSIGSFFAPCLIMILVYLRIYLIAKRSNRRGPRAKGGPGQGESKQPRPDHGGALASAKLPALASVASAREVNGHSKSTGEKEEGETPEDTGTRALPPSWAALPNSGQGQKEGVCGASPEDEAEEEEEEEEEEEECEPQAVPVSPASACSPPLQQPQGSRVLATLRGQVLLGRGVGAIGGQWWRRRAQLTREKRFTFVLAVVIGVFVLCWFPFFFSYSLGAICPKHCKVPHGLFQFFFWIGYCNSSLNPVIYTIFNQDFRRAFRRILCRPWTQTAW
Assay: Radioligand binding, adrenergic α2B ([3H]Rauwolscine)
Details: compound at 0.03 μM; [3H]Rauwolscine; repeat assays, each datapoint shown; 0.03 µM
Experimental: To evaluate in radioligand binding assays the activity of compounds of the invention, human recombinant adrenergic α2B receptor expressed in Chinese hamster ovary (CHO) K1 cells (Uhlen, S. et al, Eur. J. Pharmacol. 343(1):93, 1998) in a modified Tris-HCl buffer (50 mM Tris-HCl, pH 7.4, 12.5 mM MgCl2, 1 mM EDTA, 0.2% BSA) was used. […] Receptor proteins were filtered and washed, the filters were then counted to determine [3H]Rauwolscine specifically bound. […]
readoutType: Percentage inhibition of ligand binding, Adrenergic α2B (%)

Look over these answered cases.
>  <compound>
CN1CCc2c(c3cccc(Br)c3n2CC(O)c2ccncc2)C1 (single isomer, unassigned) [48a]

>  <targetOfAssay>
human recombinant adrenergic α2B receptor (Homo sapiens)

>  <reported>
58

$$$$
>  <compound>
COc1ccc(C(O)Cn2c3c(c4cc(C)ccc42)CCN(C)C3)cc1 (single isomer, unassigned) [20b]

>  <targetOfAssay>
human recombinant adrenergic α2B receptor (Homo sapiens)

>  <reported>
36

$$$$
>  <compound>
CN1CCc2c(c3ccc(Cl)cc3n2CC(O)c2ccncc2)C1 (single isomer, unassigned) [53b]

>  <targetOfAssay>
human recombinant adrenergic α2B receptor (Homo sapiens)

>  <reported>
85

$$$$
>  <compound>
CN1CCc2c(c3cccc(Cl)c3n2CC(C)(O)c2cccnc2)C1 (single isomer, unassigned) [57b]

>  <targetOfAssay>
human recombinant adrenergic α2B receptor (Homo sapiens)

>  <reported>
84

$$$$
>  <compound>
CN1CCc2c(n(CC(C)(O)c3cccnc3)c3ccc(Cl)cc23)C1 (single isomer, unassigned) [28a]

>  <targetOfAssay>
human recombinant adrenergic α2B receptor (Homo sapiens)

>  <reported>
96

$$$$

[A] CN1Cc2c(n(CC(O)c3ccncc3)c3ncccc23)C(C)(C)C1 (single isomer, unassigned) [17a]
[B] Cc1ccc2c(c1)c1c(n2CC(O)c2ccc(F)cc2)CN(C)CC1 (single isomer, unassigned) [18b]
[C] CN1Cc2c(n(CC(O)c3ccncc3)c3ncccc23)C(C)(C)C1 (single isomer, unassigned) [17b]
[D] CN1CCc2c(n(CC(O)c3ccncc3)c3ccc(Cl)cc23)C1 (single isomer, unassigned) [41a]
[E] CN1CCc2c(c3cc(Cl)ccc3n2CC(C)(O)c2cccnc2)C1 (single isomer, unassigned) [31a]
Q: Falling order of Percentage inhibition of ligand binding, Adrenergic α2B, please. Your task in answering is to list the labels in the requested order.
Result: E, B, A, C, D
